molecular target: P2X7 (Homo sapiens (Human), UniProt Q99572); assay: P2X7 antagonism in human peripheral blood mononuclear cells (PBMCs), IL-1β release (LPS + Bz-ATP, ELISA); assay type: cell-based; conditions: P2X7, 10 μM test compound, LPS 30 ng/ml + Bz-ATP 0.5 mM, read-out: PBMC @10 μM (% control)
Sequence (Q99572 whole entry): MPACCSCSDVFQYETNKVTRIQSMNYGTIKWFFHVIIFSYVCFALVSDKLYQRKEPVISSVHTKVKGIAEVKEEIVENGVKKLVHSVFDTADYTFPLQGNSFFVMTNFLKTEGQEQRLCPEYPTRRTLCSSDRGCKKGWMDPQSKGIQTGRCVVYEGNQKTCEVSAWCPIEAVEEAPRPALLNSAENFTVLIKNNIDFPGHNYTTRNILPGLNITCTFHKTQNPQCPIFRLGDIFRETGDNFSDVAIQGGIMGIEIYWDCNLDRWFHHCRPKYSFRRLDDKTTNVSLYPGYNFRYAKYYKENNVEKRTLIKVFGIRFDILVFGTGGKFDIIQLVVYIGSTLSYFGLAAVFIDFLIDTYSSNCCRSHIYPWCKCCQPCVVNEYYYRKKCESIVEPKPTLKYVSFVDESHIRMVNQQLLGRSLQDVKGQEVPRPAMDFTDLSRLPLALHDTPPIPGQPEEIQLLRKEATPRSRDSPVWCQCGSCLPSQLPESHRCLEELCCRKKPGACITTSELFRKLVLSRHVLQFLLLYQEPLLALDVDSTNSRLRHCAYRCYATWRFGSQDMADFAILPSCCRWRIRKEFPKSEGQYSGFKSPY
property: remaining activity at 10 µM (%)
Numbers only; they are read as %.

These solved cases illustrate the format of a correct answer.
Cc1nc(-c2ccn[nH]2)c2c(n1)[C@H]1CCC[C@@H](C2)N1C(=O)c1ccc(Cl)cc1F | -25.1
Cc1nc(-c2ccn[nH]2)c2c(n1)[C@@H]1CCC[C@H](C2)N1C(=O)c1cccc(C(F)(F)F)c1F | 31.9
Cc1nc(-c2cnn(C)c2)c2c(n1)[C@H]1CCC[C@@H](C2)N1C(=O)c1ccnc(C(F)(F)F)c1Cl | 4.8
Cc1nc(-c2cnccn2)c2c(n1)[C@H]1CCC[C@@H](C2)N1C(=O)c1cccc(C(F)(F)F)c1C | -2.2
Cc1nc(-c2ccn[nH]2)c2c(n1)[C@@H]1CCC[C@H](C2)N1C(=O)c1ccnc(C(F)(F)F)c1Cl | 20.5
Cc1nc(-c2ccn[nH]2)c2c(n1)[C@@H]1CCC[C@H](C2)N1C(=O)c1ccc(Cl)cc1F | 92.6

remaining activity at 10 µM reported for this molecule Cc1nc(-c2ccc(F)cc2)c2c(n1)[C@@H]1CCC[C@H](C2)N1C(=O)c1ccnc(C(F)(F)F)c1Cl : 28.9

Entry Cc1nc(-c2ccn[nH]2)c2c(n1)[C@H]1CCC[C@@H](C2)N1C(=O)c1ccc(F)c(Cl)c1Cl , remaining activity at 10 µM reported as -10.2

Noted for Cc1nc(-c2ccn[nH]2)c2c(n1)[C@H]1CCC[C@@H](C2)N1C(=O)c1ccnc(C(F)(F)F)c1Cl : its remaining activity at 10 µM reads 2.4

Looking up Cc1nc(-c2ccccn2)c2c(n1)[C@H]1CCC[C@@H](C2)N1C(=O)c1ccc(Cl)c(F)c1Cl , I see its remaining activity at 10 µM listed as -2.8

Per the record, Cc1nc(-c2ccn[nH]2)c2c(n1)[C@@H]1CCC[C@H](C2)N1C(=O)c1ccc(F)cc1Cl has remaining activity at 10 µM of 91.3

Reported remaining activity at 10 µM of Cc1nc(-c2ncccn2)c2c(n1)[C@H]1CCC[C@@H](C2)N1C(=O)c1cccc(C(F)(F)F)c1Cl : -5.6

Short answer for Cc1nc(-c2cnn(C)c2)c2c(n1)[C@H]1CCC[C@@H](C2)N1C(=O)c1cccc(Cl)c1Cl : remaining activity at 10 µM was -0.9

molecule Cc1nc(-c2ccc(F)cc2)c2c(n1)[C@H]1CCC[C@@H](C2)N1C(=O)c1cccc(C(F)(F)F)c1Cl , remaining activity at 10 µM observed: -3

What the record says about Cc1nc(-c2ccn[nH]2)c2c(n1)[C@H]1CCC[C@@H](C2)N1C(=O)c1cccc(C(F)(F)F)c1Cl : remaining activity at 10 µM is -3

Reported remaining activity at 10 µM of Cc1nc(-c2ccccn2)c2c(n1)[C@H]1CCC[C@@H](C2)N1C(=O)c1cccc(C(F)(F)F)c1Cl : -0.9

Field remaining activity at 10 µM (entry Cc1nc(-c2ccn[nH]2)c2c(n1)[C@@H]1CCC[C@H](C2)N1C(=O)c1ccc(Cl)c(F)c1Cl ) reads 22.4

remaining activity at 10 µM in this record for Cc1nc(-c2ccn[nH]2)c2c(n1)[C@H]1CCC[C@@H](C2)N1C(=O)c1cccc(C(F)(F)F)c1C : -26.4

What the record says about Cc1nc(-c2ccn[nH]2)c2c(n1)[C@H]1CCC[C@@H](C2)N1C(=O)c1cccc(Cl)c1Cl : remaining activity at 10 µM is -22.9

remaining activity at 10 µM in this record for Cc1nc(-c2ccc(F)cc2)c2c(n1)[C@@H]1CCC[C@H](C2)N1C(=O)c1cccc(C(F)(F)F)c1Cl : 22.2

So for Cc1nc(-c2ccccn2)c2c(n1)[C@H]1CCC[C@@H](C2)N1C(=O)c1ccnc(C(F)(F)F)c1Cl , the logged remaining activity at 10 µM turned out to be 0.4

remaining activity at 10 µM in this record for Cc1nc(-c2ccn[nH]2)c2c(n1)[C@@H]1CCC[C@H](C2)N1C(=O)c1ccc(F)c(Cl)c1Cl : 25.4

The reported remaining activity at 10 µM of the molecule Cc1nc(-c2ccnn2C)c2c(n1)[C@H]1CCC[C@@H](C2)N1C(=O)c1cccc(C(F)(F)F)c1C was -0.3

Record Cc1nc(-c2ccccn2)c2c(n1)[C@H]1CCC[C@@H](C2)N1C(=O)c1cccc(C(F)(F)F)c1C . Reported remaining activity at 10 µM: -1.4

For Cc1nc(-c2ccn[nH]2)c2c(n1)[C@@H]1CCC[C@H](C2)N1C(=O)c1cccc(C(F)(F)F)c1C the molecule record lists remaining activity at 10 µM as 18.1

// sample Cc1nc(-c2ccc(F)cc2)c2c(n1)[C@H]1CCC[C@@H](C2)N1C(=O)c1cccc(Cl)c1Cl , its remaining activity at 10 µM was -1.6
